Conditions: buffer; pH 7.4; 200.0 µM
Tick label 1 if solubility kinetic is 20 µg/mL or greater. Tick label 0 if solubility kinetic is less than 20 µg/mL.

Study these solved cases before continuing.
CN(C(=O)COC(=O)c1ccc(S(=O)(=O)N2CCOCC2)cc1)c1ccccc1: label 0
Cc1nn(C)c(Oc2ccccc2)c1CCNC(=O)CCl: label 1
Cc1sc2nc(CSC(C)C(=O)N3CCOCC3)[nH]c(=O)c2c1C (configuration not stated): label 1
Br.COc1ccc(-c2nc3n(c2C)CCC3)cc1: label 1
O=C(NCC(c1ccco1)N1CCOCC1)c1ccccc1 (configuration not stated): label 1

[Q] Please tell me: is the compound C=CCN1C(=O)C2(OCCO2)c2cc(C)ccc21 at or over 20 µg/mL in terms of solubility kinetic?
[A] label 1

[Q] Do the same for Fc1ccc2[nH]c3c(NCc4ccccc4)ncnc3c2c1 please
[A] label 0

[Q] Do the same for CN(C)/C=C/C(=O)c1ccc(C(F)(F)F)cc1F please
[A] label 1

[Q] Do the same for COc1cc2c(cc1OC)CN(C(=O)c1sccc1C)CC2 please
[A] label 1

[Q] Do the same for O=C(NN=C1CCCC1)C1COc2ccccc2O1 (configuration not stated) please
[A] label 1

[Q] Do the same for CCOC(=O)Cc1nc(-c2cccc(C(F)(F)F)c2)no1 please
[A] label 0

[Q] Do the same for COc1cccc(OC)c1C(=O)OCC(=O)N1CCC(Cc2ccccc2)CC1 please
[A] label 0

###

Details: buffer; pH 7.4; 200.0 µM
The entries below come with measured solubility kinetic values attached.
Number in µg/mL, nothing else.

Example cases with answers are listed next.
O=C(COc1ccccc1[N+](=O)[O-])OCC(=O)c1ccc(Br)s1: 59.9
O=C(C1=C(O)C(=O)N(CC2CCCO2)C1c1ccccc1)c1ccco1 (centres undefined): 41.8
O=C(NC1CCCC1)c1cc(-c2ccc(F)cc2)on1: 2.1
Cc1ccc(N(C)S(=O)(=O)c2csc(C(N)=O)c2)cc1C: 43.8
COC(=O)Cc1c(C)nc(SCc2ccccc2)[nH]c1=O: 16.4

[Q] // solubility kinetic lookup, key: Cc1ccc(C)c(OC(=O)c2cccnc2)c1
[A] 16.9

[Q] Do the same for COc1cccc(N2CCN(Cc3ccco3)CC2)c1 please
[A] 30.8

[Q] Do the same for O=C(CCCCN1CCCCC1)c1ccc2c(c1)Cc1ccccc1-2 please
[A] 6.6

[Q] Do the same for O=C(CN1CCCCCC1)NCc1ccccc1 please
[A] 34.8

[Q] Do the same for C=CCN1C(=O)C(CC(=O)O)SC1=Nc1ccc(C(=O)O)cc1 (centres undefined) please
[A] 49.2

[Q] Do the same for O=[N+]([O-])c1ccc(O)c(C=Nc2cccc3ccccc23)c1 please
[A] 24.6

[Q] Do the same for O=C(COC(=O)c1ccccn1)c1ccc([N+](=O)[O-])cc1 please
[A] 39.9

[Q] Do the same for Fc1ccc2[nH]c3c(c2c1)CN(C(=S)NCc1ccccc1)CC3 please
[A] 5

[Q] Do the same for Cc1ccc2cc(/C=C/C(=O)c3ccco3)c(Cl)nc2c1 please
[A] 3.2

[Q] Do the same for O=C(NCc1ccco1)/C(=C\c1ccccc1)NC(=O)c1ccccc1 please
[A] 17.2

[Q] Do the same for Cc1nc(-c2ccccc2)sc1C(=O)Nc1ccccc1F please
[A] 1.8

[Q] Do the same for Cc1cc(NC(=O)COc2ccc(C(C)(C)C)cc2)no1 please
[A] 2

[Q] Do the same for O=C(O)Cc1ccc(NCc2ccccc2Cl)cc1 please
[A] 28

[Q] Do the same for Cc1ccc2nc(SCC(=O)NC3CCS(=O)(=O)C3)[nH]c2c1 (centres undefined) please
[A] 48.3

[Q] Do the same for O=C(CSc1ncccn1)NC1CCS(=O)(=O)C1 (centres undefined) please
[A] 39.7

[Q] Do the same for Fc1ccc(SCCc2ccccn2)cc1 please
[A] 7.1

[Q] Do the same for C#CCOc1c(Cl)cc(/C=C2/C(=O)ON=C2C)cc1OCC please
[A] 39.4

[Q] Do the same for O=C(CS(=O)CC(=O)NC12CC3CC(CC(C3)C1)C2)Nc1ccc(F)cc1 (centres undefined) please
[A] 16.2

[Q] Do the same for CC(C)c1ccc(NC(=O)C2C3C=CC(CC3)C2C(=O)O)cc1 (centres undefined) please
[A] 3.2

[Q] Do the same for O=C(CN1C(=O)c2cccc3cccc1c23)NC1CCCCC1 please
[A] 1.8
